# Protocol Details: in vitro
# Run Parameters: rat, gh3-tre-luc cells, AC50 (uM) modified / 1000
Counter-ions that a name gives are not always drawn.

Compound: SCCOCCOCCS
CC50 at 24 h: > 90 µM
//
Compound: O=S(=O)(O)c1ccc2cc(O)ccc2c1
CC50 at 24 h: > 90 µM
//
Compound: Cc1ccc([N+](=O)[O-])cc1N [2-Methyl-5-nitroaniline]
CC50 at 24 h: > 90 µM
//
Compound: CC(C)(C)OC(=O)N1CC(N)C1 [Lithium sulfate]
CC50 at 24 h: > 5 µM
//
Compound: O=C(CCCN1CCC2(CC1)C(=O)NCN2c1ccccc1)c1ccc(F)cc1 [Spiperone]
CC50 at 24 h: 14.1 µM
//
Compound: CCCCCCCCCCCC(=O)N(CC)CC [N,N-Diethyldodecanamide]
CC50 at 24 h: > 90 µM
//
Compound: CCC(C)OC(=O)c1ccc(O)cc1 (centres unmarked) [sec-Butylparaben]
CC50 at 24 h: > 90 µM
//
Compound: Cc1ccc(/C=C2/C(=O)C3(C)CCC2C3(C)C)cc1 (centres unmarked) [Enzacamene]
CC50 at 24 h: > 90 µM
//
Compound: COc1ccc(CCO)cc1 [4-Methoxybenzeneethanol]
CC50 at 24 h: > 90 µM
//
Compound: CCCC(CCC)C(=O)OC1C[C@H]2CC[C@@H](C1)[N+]2(C)C (some centres unmarked) [Anisotropine methylbromide]
CC50 at 24 h: > 50 µM
//
Compound: N=C(N)/N=C(\N)N1CCOCC1 [Moroxidine hydrochloride]
CC50 at 24 h: > 20 µM
//
Compound: CC(C)Cc1ccc([C@H](C)C(=O)O)cc1 [Dexibuprofen]
CC50 at 24 h: > 50 µM
//
Compound: Cc1[nH]cnc1C[C@H]1CCc2c(C)c3ccccc3n2C1=O [Fabesetron]
CC50 at 24 h: 33.3 µM
//
Compound: N#Cc1cc(I)c(O)c(I)c1 [Ioxynil]
CC50 at 24 h: 49.1 µM
//
Compound: O=C(O)/C=C/c1c[nH]cn1 [Urocanic acid]
CC50 at 24 h: > 90 µM
//
Compound: CC#Cc1cc(C)nc(Nc2ccccc2)n1 [Mepanipyrim]
CC50 at 24 h: > 90 µM
//
Compound: CCCCCCCCCC=O [Decanal]
CC50 at 24 h: > 90 µM
//
Compound: COc1cc(Cc2cnc(N)nc2N)cc(OC)c1OC [Trimethoprim]
CC50 at 24 h: > 90 µM
//
Compound: Oc1ccc(-c2ccc(O)cc2)cc1 [4,4'-Biphenyldiol]
CC50 at 24 h: > 90 µM
//
Compound: O=C(OCCOCCO)c1ccccc1Nc1cccc(C(F)(F)F)c1 [Etofenamate]
CC50 at 24 h: > 20 µM
//
Compound: C=CCCCCCCC=C [1,9-Decadiene]
CC50 at 24 h: > 90 µM
//
Compound: C=CC(C)(CCC=C(C)C)OC(=O)CC (centres unmarked)
CC50 at 24 h: > 90 µM
//
Compound: OCCN1CCN(CCCN2c3ccccc3Sc3ccc(C(F)(F)F)cc32)CC1 [Fluphenazine]
CC50 at 24 h: 5.76 µM
//
Compound: O=C1NC(=O)c2cc([N+](=O)[O-])ccc21 [4-Nitrophthalimide]
CC50 at 24 h: > 90 µM
//
Compound: NC1=NCC2c3ccccc3Cc3ccccc3N12 (centres unmarked) [Epinastine hydrochloride]
CC50 at 24 h: > 50 µM
//
Compound: Brc1ccc(Oc2ccc(Br)cc2)cc1 [4,4'-Dibromodiphenyl ether]
CC50 at 24 h: > 90 µM
